Documented log10(solubility kinetic at 24 h) across a set of compounds
# experiment.notes: Aqueous kinetic solubility assay
# Assay type: physicochemical
# test.parameters: phosphate buffered saline, aqueous buffer, kinetic from dmso stock, PBS pH 7.4, target 250 μM, 2.5% DMSO, 25° C.
result.type: log10(solubility kinetic at 24 h) (log10 of the value in µM)

1) CNC(=O)c1cccc(-c2cc(OC(=O)NC3CCCC3)ccc2F)c1 [Example 4]; 1.98
2) CNC(=O)c1cccc(-c2cc(OC(=O)NC3CCCCC3)ccc2OC(F)F)c1 [Example 9]; 0.90
3) CNC(=O)c1cccc(-c2cc(OC(=O)NC3CCCCC3)ccc2F)c1 [Example 1]; 1.45
4) NS(=O)(=O)c1cccc(-c2cc(OC(=O)NC3CCCCC3)ccc2F)c1 [Example 2]; 1.45
5) CNC(=O)c1cccc(-c2cccc(OC(=O)NC3CCCCC3)c2)c1 [[drawing 127] comparison compound, reference compound]; 1.26
6) NC(=O)c1cccc(-c2cccc(OC(=O)NC3CCC3)c2)c1 [[drawing 131] comparison compound, reference compound]; 0.78
7) NC(=O)c1cccc(-c2cc(OC(=O)NC3CCCCC3)ccc2OC(F)F)c1 [Example 8]; 1.64
8) NC(=O)c1cccc(-c2cccc(OC(=O)NC3CCCCC3)c2)c1 [[drawing 135] comparison compound, reference compound]; 0.00

Provenance of the data: patent US9822068B2
